- Tested on: Candida tropicalis
- Procedure text: Inhibition of chitin synthase extracted from Candida tropicalis ATCC 750 using UDP-GlcNAc as substrate assessed as inhibition rate at 300 ug/ml by TMB based microplate analyzer relative to control
- Measurement conditions: dose 300.0 µg/ml
Measured metric: inhibition

Recorded inhibition for COc1ccc(NC(=O)C2CCN(CC(=O)Nc3ccc4c(c3)NC(=O)C3(CCNC3=O)C4)CC2)cc1 (racemic) , please?
75.9%

Recorded inhibition for O=C(CN1CCC(C(=O)Nc2ccc(Cl)cc2)CC1)Nc1ccc2c(c1)NC(=O)C1(CCNC1=O)C2 (racemic) , please?
41.3%

New cases:
Recorded inhibition for Cc1ccc(NC(=O)/C=C/C(=O)Nc2ccc3c(c2)NC(=O)C2(CCNC2=O)C3)cc1 (racemic) , please?
71.4%

Recorded inhibition for "NC(=O)OC[C@H](O)[C@@H](O)[C@H](N)C(=O)N[C@H](C(=O)O)[C@H]1O[C@@H](n2cc(CO)c(=O)[nH]c2=O)[C@H](O)[C@@H]1O" , please?
86.4%

* * *

- Tested on: Aspergillus flavus
- Procedure text: Synergistic antifungal activity against Aspergillus flavus ATCC 16870 assessed as fractional inhibitory concentration index in presence of Polyoxin B incubated for 24 hrs by half broth dilution based checkerboard method
- Type: functional
Recorded measurements of fractional inhibitory concentration index (FICI), one per entry
The answer should be a number; do not append a unit.

Please tell me: fractional inhibitory concentration index (FICI) of O=C(/C=C/C(=O)Nc1cccc2ccccc12)Nc1ccc2c(c1)NC(=O)C1(CCNC1=O)C2 (racemic) , system Aspergillus flavus?
0.75

Please tell me: fractional inhibitory concentration index (FICI) of Cc1cc([N+](=O)[O-])ccc1NC(=O)C1CCN(CC(=O)Nc2ccc3c(c2)NC(=O)C2(CCNC2=O)C3)CC1 (racemic) , system Aspergillus flavus?
0.75

Please tell me: fractional inhibitory concentration index (FICI) of O=C(/C=C/C(=O)Nc1ccc2c(c1)NC(=O)C1(CCNC1=O)C2)Nc1ccc(Br)cc1 (racemic) , system Aspergillus flavus?
1.5

Please tell me: fractional inhibitory concentration index (FICI) of Cc1ccc(NC(=O)/C=C/C(=O)Nc2ccc3c(c2)NC(=O)C2(CCNC2=O)C3)cc1 (racemic) , system Aspergillus flavus?
2

New cases:
Please tell me: fractional inhibitory concentration index (FICI) of O=C(/C=C/C(=O)Nc1nc2ccccc2s1)Nc1ccc2c(c1)NC(=O)C1(CCNC1=O)C2 (racemic) , system Aspergillus flavus?
0.75

Please tell me: fractional inhibitory concentration index (FICI) of O=C(CN1CCC(C(=O)Nc2cccc3ccccc23)CC1)Nc1ccc2c(c1)NC(=O)C1(CCNC1=O)C2 (racemic) , system Aspergillus flavus?
2

Please tell me: fractional inhibitory concentration index (FICI) of O=C(CN1CCC(C(=O)Nc2cccc(Br)c2)CC1)Nc1ccc2c(c1)NC(=O)C1(CCNC1=O)C2 (racemic) , system Aspergillus flavus?
1.25

Please tell me: fractional inhibitory concentration index (FICI) of O=C(CN1CCC(C(=O)Nc2ccc(Br)cc2)CC1)Nc1ccc2c(c1)NC(=O)C1(CCNC1=O)C2 (racemic) , system Aspergillus flavus?
0.5

* * *

Recorded measurements of MIC, one per entry
- Tested on: Aspergillus fumigatus
- Procedure text: Antifungal activity against Aspergillus fumigatus GIMCC 3.19 assessed as Polyoxin B MIC incubated for 24 hrs in presence of fluconazole by half broth dilution based checkerboard method
- Format: functional

Here are 5 molecules together with their reported answers.
Recorded MIC for O=C(/C=C/C(=O)Nc1cccc2ccccc12)Nc1ccc2c(c1)NC(=O)C1(CCNC1=O)C2 (racemic) , please?
2 µg/mL

Recorded MIC for O=C(CN1CCC(C(=O)Nc2cccc(Br)c2)CC1)Nc1ccc2c(c1)NC(=O)C1(CCNC1=O)C2 (racemic) , please?
32 µg/mL

Recorded MIC for O=C(CN1CCC(C(=O)Nc2cccc3ccccc23)CC1)Nc1ccc2c(c1)NC(=O)C1(CCNC1=O)C2 (racemic) , please?
8 µg/mL

Recorded MIC for O=C(CN1CCC(C(=O)Nc2ccc(Br)cc2)CC1)Nc1ccc2c(c1)NC(=O)C1(CCNC1=O)C2 (racemic) , please?
16 µg/mL

Recorded MIC for Cc1ccc(NC(=O)/C=C/C(=O)Nc2ccc3c(c2)NC(=O)C2(CCNC2=O)C3)cc1 (racemic) , please?
16 µg/mL

New cases:
Recorded MIC for O=C(/C=C/C(=O)Nc1nc2ccccc2s1)Nc1ccc2c(c1)NC(=O)C1(CCNC1=O)C2 (racemic) , please?
2 µg/mL

Recorded MIC for O=C(/C=C/C(=O)Nc1ccc2c(c1)NC(=O)C1(CCNC1=O)C2)Nc1ccc(Br)cc1 (racemic) , please?
16 µg/mL

Recorded MIC for Cc1cc([N+](=O)[O-])ccc1NC(=O)C1CCN(CC(=O)Nc2ccc3c(c2)NC(=O)C2(CCNC2=O)C3)CC1 (racemic) , please?
16 µg/mL
